# studyTarget: AD brain homogenates (mixed 3R/4R-tau) (Homo sapiens, UniProt P10636)
# Sequence (P10636 623-758 limits assumed): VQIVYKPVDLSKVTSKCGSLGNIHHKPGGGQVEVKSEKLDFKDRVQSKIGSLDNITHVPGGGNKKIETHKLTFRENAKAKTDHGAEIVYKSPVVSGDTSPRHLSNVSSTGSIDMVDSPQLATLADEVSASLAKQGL
# experimentalDetails: Competition
# Format: binding
observationType: Ki (nM)

>  <compound>
Fc1ccc2cc(-c3cnc(N4CCOCC4)nc3)[nH]c2c1

>  <studyTarget>
AD brain homogenates (mixed 3R/4R-tau) (Homo sapiens, UniProt P10636)

>  <measurementUnit>
nM

>  <assayResult>
270

$$$$

(1) CNc1ccc(/C=C/C=C/c2nc3ccc(OCC(O)CF)cc3s2)cn1 (stereo not drawn) [PM-PBB3, reference compound]
(2) OC1CCN(c2ncc(-c3cc4ccc(F)cc4[nH]3)cn2)CC1
Req: Form field 'greater Ki' accepts 1 or 2 ; which applies? Selection: enter the item's label.
Resp: 1

* * *

# studyTarget: PSP brain homogenates (4R-tau aggregates) (Homo sapiens, UniProt P10636)
# Sequence (P10636 1-441 isoform P10636-8): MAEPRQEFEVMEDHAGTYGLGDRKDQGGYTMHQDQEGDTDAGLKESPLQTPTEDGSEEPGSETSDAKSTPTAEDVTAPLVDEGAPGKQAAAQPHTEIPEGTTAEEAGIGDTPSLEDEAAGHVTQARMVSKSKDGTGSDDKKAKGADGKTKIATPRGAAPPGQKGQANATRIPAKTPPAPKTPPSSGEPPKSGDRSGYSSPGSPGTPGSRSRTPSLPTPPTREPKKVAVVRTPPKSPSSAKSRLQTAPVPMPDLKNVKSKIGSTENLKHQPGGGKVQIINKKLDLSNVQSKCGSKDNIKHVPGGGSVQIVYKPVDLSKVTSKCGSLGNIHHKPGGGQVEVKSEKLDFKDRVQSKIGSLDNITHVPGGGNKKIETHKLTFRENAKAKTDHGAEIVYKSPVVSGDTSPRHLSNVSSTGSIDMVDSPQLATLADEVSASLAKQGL
# experimentalDetails: Competition
# Assay type: binding
pKi: −log10 of the molar value.
observationType: pKi

>  <smilesStr>
Fc1ccc2cc(-c3cnc(N4CCOCC4)nc3)[nH]c2c1

>  <pKi>
7.03

$$$$
>  <smilesStr>
OC1CCN(c2ncc(-c3cc4ccc(F)cc4[nH]3)cn2)CC1

>  <pKi>
7.02

$$$$

* * *

# studyTarget: PSP brain homogenates (4R-tau aggregates) (Homo sapiens)
# experimentalDetails: Competition
# Type: binding
pKi: −log10 of the molar value.
observationType: pKi

>  <smilesStr>
OC1CCN(c2ncc(-c3cc4ccc(F)cc4[nH]3)cn2)CC1

>  <pKi>
6.60

$$$$
>  <smilesStr>
Fc1ccc2cc(-c3cnc(N4CCOCC4)nc3)[nH]c2c1

>  <pKi>
6.57

$$$$

* * *

# studyTarget: AD brain homogenates (mixed 3R/4R-tau) (Homo sapiens)
# experimentalDetails: Competition
# Assay type: binding
pKi: −log10 of the molar value.
observationType: pKi

>  <molecule>
O[C@@H]1CCN(c2ccc(-c3cc4ccc(F)cc4[nH]3)cn2)C1

>  <studyTarget>
AD brain homogenates (mixed 3R/4R-tau) (Homo sapiens)

>  <pKi>
7.74

$$$$
>  <molecule>
CNc1ccc(/C=C/C=C/c2nc3ccc(OCC(O)CF)cc3s2)cn1 (centres unmarked) [PM-PBB3, reference compound]

>  <studyTarget>
AD brain homogenates (mixed 3R/4R-tau) (Homo sapiens)

>  <pKi>
7.82

$$$$

(1) Nc1c(F)ccc2cnc(-n3ccc4ccncc43)cc12
(2) O=C1CCN(c2ncc(-c3cc4ccccc4[nH]3)cn2)CCN1
(3) Oc1cccc2sc(-c3cnc(N4CCC(O)CC4)nc3)cc12
Req: In this exercise, place the 3 molecules in ascending sequence of their recorded pKi. List each label, following the requested order.
Resp: 1, 2, 3

* * *

# studyTarget: PSP brain homogenates (4R-tau aggregates) (Homo sapiens, UniProt P10636)
# experimentalDetails: Competition
# Assay type: binding
observationType: Ki (nM)

(I) O=C1CCN(c2ncc(-c3cc4ccccc4[nH]3)cn2)CCN1
(II) OCC1CCN(c2ccc(-c3cc4cc(O)ccc4[nH]3)c(F)n2)CC1
Req: Form field 'greater Ki' accepts I or II ; which applies? Selection: enter the item's label.
Resp: II

* * *

# studyTarget: AD brain homogenates (mixed 3R/4R-tau) (Homo sapiens, UniProt P10636)
# experimentalDetails: Competition
# Assay type: binding
observationType: Ki (nM)

(A) OCC1CCN(c2ccc(-c3cc4cc(O)ccc4[nH]3)c(F)n2)CC1
(B) Fc1cc(-c2ccc3c(n2)[nH]c2ccncc23)ccn1
Req: Field: lower recorded Ki (choose A or B ) Selection: enter the item's label.
Resp: B
